Target: PRMT1 (Rattus norvegicus)
Sequence (Q63009 whole entry): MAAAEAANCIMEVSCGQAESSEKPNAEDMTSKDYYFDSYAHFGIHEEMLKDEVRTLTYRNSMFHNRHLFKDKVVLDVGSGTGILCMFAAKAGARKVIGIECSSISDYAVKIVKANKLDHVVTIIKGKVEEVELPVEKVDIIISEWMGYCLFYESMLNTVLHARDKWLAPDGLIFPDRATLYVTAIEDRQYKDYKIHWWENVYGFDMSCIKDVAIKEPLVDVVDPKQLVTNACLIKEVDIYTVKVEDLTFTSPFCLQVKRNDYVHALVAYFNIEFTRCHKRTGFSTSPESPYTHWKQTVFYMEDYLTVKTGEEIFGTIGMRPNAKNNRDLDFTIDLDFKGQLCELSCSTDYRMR
pIC50: −log10 of the molar value.
READOUT: pIC50

>  <GIVEN SMILES>
Nc1ncnc2c1ncn2[C@@H]1O[C@H](CSCC[C@H](N)C(=O)O)[C@@H](O)[C@H]1O

>  <NUMERIC RESULT>
6.52

$$$$
